Tested on: HT-29 cells
assay_notes: In vitro cytotoxicity, CellTiter-Glo
Type: cell-based
experimental_parameters: Homo sapiens; HT-29, target expressing, 96 hours; read-out: HT-29 Antibody IC50
Numbered stars: 1 amine (or outer) side, 2 acyl side, 3 side chain; on linkers, the order of the positions; unused ones are H or OH. Square brackets hold non-standard residues; d marks the D form. Peptide text beside a SMILES is read from it. * marks the point of attachment. ξ: configuration not given here. Dolaproine = CO[C@@H]([C@@H]1CCCN1)[C@@H](C)C(=O)O; Dil = CC[C@H](C)[C@H](NC)[C@@H](CC(=O)O)OC; PABC = O=C(OCc1ccc(N[*:1])cc1)[*:2]; Doe = c1ccc(C[C@H](N*)c2nccs2)cc1; X2 = C[C@@H](N*)[C@@H](O)c1ccccc1; Cit = NC(=O)NCCC[C@H](N)C(=O)O; NMeV = CN[C@H](C(=O)O)C(C)C; PEG3 = NCCOCCOCCOCCC(=O)O; ξK = NCCCCC(N)C(=O)O; Ahx = NCCCCCC(=O)O; βAla = NCCC(=O)O
# maps each entry to its pIC50
Entry type: numeric. Quantity: pIC50, the -log10 of concentration in molar units.

Example results:
CC[C@H](C)[C@@H]([C@@H](CC(=O)N1CCC[C@H]1[C@H](OC)[C@@H](C)C(=O)N[C@@H](Cc1ccccc1)c1nccs1)OC)N(C)C(=O)[C@@H](NC(=O)[C@H](C(C)C)N(C)C(=O)CCCCCN)C(C)C [Sample 28, Aminocaproyl-MMAD] (H-[Ahx][NMeV]V[Dil][Dolaproine]-Doe) : 7.01
CC[C@H](C)[C@@H]([C@@H](CC(=O)N1CCC[C@H]1[C@H](OC)[C@@H](C)C(=O)N[C@H](C)[C@@H](O)c1ccccc1)OC)N(C)C(=O)[C@@H](NC(=O)[C@H](C(C)C)N(C)C(=O)CCOCCOCCOCCN)C(C)C [Sample 33, Amino-PEG3-C2-MMAE] (H-[PEG3][NMeV]V[Dil][Dolaproine]-X2) : 6.68
CO[C@H]1/C=C\C=C(/C)C(=O)NC2=CC(=O)C(NCCCCN)=C(C[C@@H](C)C[C@H](OC)[C@H](O)[C@@H](C)/C=C(\C)[C@@H]1OC(N)=O)C2=O : 6.50
CC[C@H](C)[C@@H]([C@@H](CC(=O)N1CCC[C@H]1[C@H](OC)[C@@H](C)C(=O)N[C@@H](Cc1ccccc1)c1nccs1)OC)N(C)C(=O)[C@@H](NC(=O)[C@H](C(C)C)N(C)C(=O)OCc1ccc(NC(=O)[C@H](CCCNC(N)=O)NC(=O)[C@@H](NC(=O)[C@H](CCCCN)NC(C)=O)C(C)C)cc1)C(C)C [Sample 27, AcLys-VC-PABC-MMAD] (Ac-KV[Cit][PABC][NMeV]V[Dil][Dolaproine]-Doe) : 9.72

Quick one: pIC50 of CC[C@H](C)[C@@H]([C@@H](CC(=O)N1CCC[C@H]1[C@H](OC)[C@@H](C)C(=O)N[C@@H](Cc1ccccc1)c1nccs1)OC)N(C)C(=O)[C@@H](NC(=O)[C@H](C(C)C)N(C)C(=O)CCNC(=O)C(CCCCN)NC(C)=O)C(C)C (stereo partly drawn) [Sample 30, AcLys-β-Ala-MMAD] (Ac-[ξK][βAla][NMeV]V[Dil][Dolaproine]-Doe) ? 7.23

====

Test system: A431 cells
assay_notes: In vitro cytotoxicity, CellTiter-Glo
Type: cell-based
experimental_parameters: Homo sapiens, A-431; A431, target expressing, 96 hours; read-out: A431 Antibody IC50
Square brackets hold non-standard residues; d marks the D form. Peptide text beside a SMILES is read from it. * marks the point of attachment. ξ: configuration not given here. Dolaproine = CO[C@@H]([C@@H]1CCCN1)[C@@H](C)C(=O)O; Dil = CC[C@H](C)[C@H](NC)[C@@H](CC(=O)O)OC; Doe = c1ccc(C[C@H](N*)c2nccs2)cc1; NMeV = CN[C@H](C(=O)O)C(C)C; ξK = NCCCCC(N)C(=O)O; Ahx = NCCCCCC(=O)O; βAla = NCCC(=O)O
property_measured: IC50

Example results:
CO[C@H]1/C=C\C=C(/C)C(=O)NC2=CC(=O)C(NCCCCN)=C(C[C@@H](C)C[C@H](OC)[C@H](O)[C@@H](C)/C=C(\C)[C@@H]1OC(N)=O)C2=O : > 1000 nM
CC[C@H](C)[C@@H]([C@@H](CC(=O)N1CCC[C@H]1[C@H](OC)[C@@H](C)C(=O)N[C@@H](Cc1ccccc1)c1nccs1)OC)N(C)C(=O)[C@@H](NC(=O)[C@H](C(C)C)N(C)C(=O)CCNC(=O)C(CCCCN)NC(C)=O)C(C)C (stereo partly drawn) [Sample 30, AcLys-β-Ala-MMAD] (Ac-[ξK][βAla][NMeV]V[Dil][Dolaproine]-Doe) : 98.5 nM

Lookup: IC50 / A431 cells / CC[C@H](C)[C@@H]([C@@H](CC(=O)N1CCC[C@H]1[C@H](OC)[C@@H](C)C(=O)N[C@@H](Cc1ccccc1)c1nccs1)OC)N(C)C(=O)[C@@H](NC(=O)[C@H](C(C)C)N(C)C(=O)CCCCCN)C(C)C [Sample 28, Aminocaproyl-MMAD] (H-[Ahx][NMeV]V[Dil][Dolaproine]-Doe) 146 nM
